Collected inhibition at 1 µM values appear next to each entry.
- target-under-test: human GnRH receptor (Homo sapiens)
- Construct: expressed in transfected cells; host or cells: HEK 293 (hGnRH-R/293, from Dr. Stuart Sealfon)
- Sequence (P30968 whole entry): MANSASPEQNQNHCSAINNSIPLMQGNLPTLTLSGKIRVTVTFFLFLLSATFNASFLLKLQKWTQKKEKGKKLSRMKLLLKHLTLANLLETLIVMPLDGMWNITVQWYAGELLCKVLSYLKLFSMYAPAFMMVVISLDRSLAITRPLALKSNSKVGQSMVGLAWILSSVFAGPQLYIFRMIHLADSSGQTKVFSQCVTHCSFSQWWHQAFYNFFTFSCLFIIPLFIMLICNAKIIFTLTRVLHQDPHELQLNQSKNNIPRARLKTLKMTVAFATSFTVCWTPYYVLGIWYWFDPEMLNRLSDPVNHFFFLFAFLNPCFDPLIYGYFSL
- assay-details: Radioligand binding, 125I-GnRH-A displacement, membranes of HEK 293 cells with human GnRH receptor
- condition-info: 1 h, repeat of % Inhib. at 1 uM; read-out: Repeats @ 1 uM hGnRH
Give the number; % is assumed, so skip it.

See these solved cases before continuing.
INSERT INTO results (compound, target_under_test, quantity_name, unit_descriptor, recorded_result) VALUES
  ('CNCCCNC(=O)c1ccc(Cc2cc3c(cc2C)C(C)(C)CCC3(C)C)o1 [drawing 1027]', 'human GnRH receptor (Homo sapiens)', 'inhibition at 1 µM', '%', -25),
  ('Cc1cc2c(cc1Cc1ccc(C(=O)NCCc3c(Cl)cccc3Cl)o1)C(C)(C)CCC2(C)C', 'human GnRH receptor (Homo sapiens)', 'inhibition at 1 µM', '%', 17),
  ('Cc1cc2c(cc1Cc1ccc(C(=O)N3CCN(c4ccc(C(F)(F)F)cc4[N+](=O)[O-])CC3)o1)C(C)(C)CCC2(C)C', 'human GnRH receptor (Homo sapiens)', 'inhibition at 1 µM', '%', -21);

Incoming: Which value of inhibition at 1 µM has been reported for Cc1ccc(CNC(=O)c2ccc(Cc3cc4c(cc3C)C(C)(C)CCC4(C)C)o2)cc1C [drawing 1191] in the records?
Outgoing: 79

The measured values listed here are drawn from patent US7101878B1.
